target: hNaV1.7 (Homo sapiens, UniProt Q15858); construct: expressed in transfected cells; host or cells: HEK293; test: QPatch NaV1.7 assay; assay type: cell-based; settings: HEK293-hNaV1.7 cells, QPatch16x; holding voltage −90 mV, where most of the channels are in a closed state; read-out: QP Nav1.7 - 90 mV pIC50 (converted)
Sequence (Q15858 whole entry): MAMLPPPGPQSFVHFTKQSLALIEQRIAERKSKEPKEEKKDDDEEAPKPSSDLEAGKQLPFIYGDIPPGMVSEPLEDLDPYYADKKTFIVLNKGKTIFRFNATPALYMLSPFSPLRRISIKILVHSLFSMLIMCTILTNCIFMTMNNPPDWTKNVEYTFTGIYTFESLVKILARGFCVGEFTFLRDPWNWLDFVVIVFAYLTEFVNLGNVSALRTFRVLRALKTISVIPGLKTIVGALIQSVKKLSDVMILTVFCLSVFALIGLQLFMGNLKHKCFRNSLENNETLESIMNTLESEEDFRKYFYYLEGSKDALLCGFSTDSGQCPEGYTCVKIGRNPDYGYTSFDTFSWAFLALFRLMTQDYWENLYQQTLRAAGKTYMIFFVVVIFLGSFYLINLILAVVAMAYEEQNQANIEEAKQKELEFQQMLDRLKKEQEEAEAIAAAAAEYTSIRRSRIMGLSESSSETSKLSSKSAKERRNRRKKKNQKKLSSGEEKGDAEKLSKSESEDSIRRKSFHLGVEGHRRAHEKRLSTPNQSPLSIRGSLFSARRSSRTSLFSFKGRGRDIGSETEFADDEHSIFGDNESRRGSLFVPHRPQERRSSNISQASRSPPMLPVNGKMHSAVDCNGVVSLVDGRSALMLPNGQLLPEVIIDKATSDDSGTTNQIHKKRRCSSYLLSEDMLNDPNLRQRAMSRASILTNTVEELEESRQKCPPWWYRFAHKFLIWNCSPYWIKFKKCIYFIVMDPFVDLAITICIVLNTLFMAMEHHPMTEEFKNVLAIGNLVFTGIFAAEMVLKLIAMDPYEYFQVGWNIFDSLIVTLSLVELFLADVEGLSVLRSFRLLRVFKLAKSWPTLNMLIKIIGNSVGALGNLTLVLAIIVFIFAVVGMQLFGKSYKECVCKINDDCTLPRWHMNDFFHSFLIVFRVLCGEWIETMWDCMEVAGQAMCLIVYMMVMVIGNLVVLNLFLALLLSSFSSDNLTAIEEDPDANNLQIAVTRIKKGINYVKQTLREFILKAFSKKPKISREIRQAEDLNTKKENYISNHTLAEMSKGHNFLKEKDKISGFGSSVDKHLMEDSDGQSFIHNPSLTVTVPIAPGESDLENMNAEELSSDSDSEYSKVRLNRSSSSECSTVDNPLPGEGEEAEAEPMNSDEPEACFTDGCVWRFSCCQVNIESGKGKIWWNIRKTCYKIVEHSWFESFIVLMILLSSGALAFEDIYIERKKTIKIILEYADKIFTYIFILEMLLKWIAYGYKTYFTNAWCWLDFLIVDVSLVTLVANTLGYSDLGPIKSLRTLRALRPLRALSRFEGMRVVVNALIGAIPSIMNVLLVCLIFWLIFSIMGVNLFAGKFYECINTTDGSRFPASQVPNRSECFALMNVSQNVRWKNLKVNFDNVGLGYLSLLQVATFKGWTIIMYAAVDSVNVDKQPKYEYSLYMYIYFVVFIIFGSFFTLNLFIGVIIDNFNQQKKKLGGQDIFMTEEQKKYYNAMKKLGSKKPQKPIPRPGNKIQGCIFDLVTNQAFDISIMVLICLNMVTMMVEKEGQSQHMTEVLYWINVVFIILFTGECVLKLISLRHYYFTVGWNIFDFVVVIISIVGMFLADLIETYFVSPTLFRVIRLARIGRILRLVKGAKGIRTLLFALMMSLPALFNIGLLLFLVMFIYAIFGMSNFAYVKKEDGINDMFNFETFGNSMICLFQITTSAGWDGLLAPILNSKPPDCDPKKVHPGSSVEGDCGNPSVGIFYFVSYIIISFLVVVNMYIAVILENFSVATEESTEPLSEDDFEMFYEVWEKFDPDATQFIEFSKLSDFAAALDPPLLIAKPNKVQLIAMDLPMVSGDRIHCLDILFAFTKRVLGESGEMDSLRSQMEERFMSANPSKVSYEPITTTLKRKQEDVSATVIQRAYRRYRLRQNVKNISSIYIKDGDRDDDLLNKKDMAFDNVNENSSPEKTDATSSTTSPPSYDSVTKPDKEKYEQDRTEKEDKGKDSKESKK
Counter-ions that a name gives are not always drawn.
measure_name: IC50 (µM)
# output: bare number, implied unit µM

Inquiry: Please provide the recorded IC50 for CN1CC[C@]2(CC[C@H](c3nccc(-c4cccc(OC(F)(F)F)c4)n3)N2)C1=O [Example 21, hydrochloride] , tested on hNaV1.7 (Homo sapiens, UniProt Q15858).
Reply text: 200

Inquiry: Enter reported IC50 observed with hNaV1.7 (Homo sapiens, UniProt Q15858) for Cc1cc(-c2ccc(C(F)(F)F)cc2)nc([C@H]2CC[C@@]3(CCN(C)C3=O)N2)n1.Cl [Example 7, hydrochloride]
Reply text: 126

Inquiry: Request - read-out IC50 | tested on hNaV1.7 (Homo sapiens, UniProt Q15858) | compound CCOc1ccc(F)c(-c2cc(C)nc([C@H]3CC[C@]4(CCCNC4=O)N3)n2)c1 [Example 12, hydrochloride]
Reply text: 20

Inquiry: Give the reported IC50 for Cc1cc(-c2ccc(C(F)(F)F)cc2)nc([C@H]2CC[C@]3(CCNC3=O)N2)n1 [Example 42, hydrochloride] (system: hNaV1.7 (Homo sapiens, UniProt Q15858)).
Reply text: 501

Inquiry: Notebook entry, hNaV1.7 (Homo sapiens, UniProt Q15858) assay: IC50 of CCOc1ccc(F)c(-c2ccnc([C@@H]3CC[C@]4(CCN(C)C4=O)N3)n2)c1 [Example 15, hydrochloride] = ?
Reply text: 126

Inquiry: API: value(readout= IC50, system= hNaV1.7 (Homo sapiens, UniProt Q15858), query= Cc1cc(-c2ccc(OC(F)(F)F)cc2)nc([C@@H]2CC[C@]3(CCN(C)C3=O)N2)n1 [Example 29, hydrochloride] )
Reply text: 126

Inquiry: # get_value(readout= IC50, system= hNaV1.7 (Homo sapiens, UniProt Q15858)) for CCOc1ccc(F)c(-c2cc(C)nc([C@@H]3CC[C@@]4(CCCNC4=O)N3)n2)c1 [Example 38, hydrochloride]
Reply text: 50.1

Inquiry: # get_value(readout= IC50, system= hNaV1.7 (Homo sapiens, UniProt Q15858)) for CCOc1ccc(F)c(-c2cc(C)nc([C@@H]3CC[C@]4(CCN(C)C4=O)N3)n2)c1 [Example 8, hydrochloride]
Reply text: 39.8

Inquiry: Checklist item: IC50 tested on hNaV1.7 (Homo sapiens, UniProt Q15858), entry Cc1cc(-c2ccc(C(F)(F)F)cc2)nc([C@@H]2CC[C@]3(CCNC3=O)N2)n1 [Example 40, hydrochloride] , value?
Reply text: 158

###

target: hNaV1.7 (Homo sapiens, UniProt Q15858); construct: expressed in transfected cells; host or cells: HEK293; assay: QPatch NaV1.7 assay; type: cell-based; conditions: HEK293-hNaV1.7 cells, QPatch16x; holding voltage V1/2 SSI, where half of the channels are inactivated; read-out: QP Nav1.7 SSI vhalf pIC50 (converted)
Counter-ions that a name gives are not always drawn.
measure_name: IC50 (µM)
Hi! Could you send only the number? It should be in µM, unit omitted.

Inquiry: GET /values?readout=IC50&system=hNaV1.7 (Homo sapiens, UniProt Q15858)&item= Cc1cc(-c2cc(OC(F)(F)F)ccc2F)nc([C@@H]2CC[C@]3(CCN(C)C3=O)N2)n1 [Example 34, hydrochloride]
Reply text: 7.94

Inquiry: Hi! What's the reported IC50 for Cc1cc(-c2cc(OC(F)(F)F)ccc2F)nc([C@H]2CC[C@@]3(CCN(C)C3=O)N2)n1 [Example 32, hydrochloride] on hNaV1.7 (Homo sapiens, UniProt Q15858)?
Reply text: 2.51

Inquiry: Any idea what IC50 came out for CN1CC[C@]2(CC[C@@H](c3nccc(-c4cccc(OC(F)(F)F)c4)n3)N2)C1=O [Example 20, hydrochloride] on hNaV1.7 (Homo sapiens, UniProt Q15858)?
Reply text: 25.1

Inquiry: Param readout = IC50; param system = hNaV1.7 (Homo sapiens, UniProt Q15858); param query = Cc1cc(-c2cc(OC(F)(F)F)ccc2F)nc([C@H]2CC[C@]3(CCN(C)C3=O)N2)n1 [Example 33, hydrochloride] ; response: value
Reply text: 2

Inquiry: So what IC50 did CC(C)Oc1ccc(-c2ccnc([C@@H]3CC[C@@]4(CCN(C)C4=O)N3)n2)cc1 [Example 26, hydrochloride] get with hNaV1.7 (Homo sapiens, UniProt Q15858)?
Reply text: 50.1

Inquiry: Return IC50 measured with hNaV1.7 (Homo sapiens, UniProt Q15858) given this compound: Cc1cc(-c2ccc(C(F)(F)F)cc2)nc([C@@H]2CC[C@@]3(CCN(C)C3=O)N2)n1 (single isomer, unassigned) [Example 22, hydrochloride]
Reply text: 63.1

Inquiry: Test system hNaV1.7 (Homo sapiens, UniProt Q15858); read-out IC50; what value for CCOc1ccc(F)c(-c2cc(C)nc([C@H]3CC[C@@]4(CCCNC4=O)N3)n2)c1 [Example 37, hydrochloride] ?
Reply text: 1.58

###

biological target: hNaV1.7 (Homo sapiens, UniProt Q15858); construct: expressed in transfected cells; host or cells: HEK293; assay: QPatch NaV1.7 assay; format: cell-based; settings: HEK293-hNaV1.7 cells, QPatch16x; holding voltage −90 mV, where most of the channels are in a closed state; read-out: QP Nav1.7 - 90 mV pIC50 (converted)
Where a name gives a salt, the structure may show the parent alone.
Give IC50 for every item shown.

Inquiry: # lookup: IC50 of Cc1cc(-c2ccc(C(F)(F)F)cc2)nc([C@H]2CC[C@@]3(CCNC3=O)N2)n1 [Example 39, hydrochloride]
Reply text: 126 µM

Inquiry: Given CN1CC[C@]2(CC[C@@H](c3nccc(-c4cccc(OC(F)(F)F)c4)n3)N2)C1=O [Example 20, hydrochloride] , state its recorded IC50.
Reply text: 200 µM

Inquiry: May I ask what IC50 has been recorded for CC(C)Oc1ccc(-c2ccnc([C@@H]3CC[C@]4(CCN(C)C4=O)N3)n2)cc1 [Example 24, hydrochloride] ?
Reply text: 158 µM

Inquiry: Return reported IC50; argument: Cc1cc(-c2ccc(OC(F)(F)F)cc2)nc([C@@H]2CC[C@@]3(CCN(C)C3=O)N2)n1 [Example 28, hydrochloride]
Reply text: 631 µM
